Values were extracted from paper PMC5540273.

List of %Inh values.
Tested on: RSK1(Kin.Dom.2-C-terminal)
Construct: gene RPS6KA1
Conditions: concentration: 1 μM,replicates: in singlicate; n = 1;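 also: KINOMEscan kinase panel screen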
Just the number in %, nothing appended.

Please review the following examples before continuing.
CC(=O)Nc1nc2cnc(Nc3cc(NC(=O)c4cccc(CC(C)(C)C#N)c4)ccc3C)nc2s1 | 0
CCCC(=O)Nc1n[nH]c2ncccc12 | 0

Challenge: Report %Inh for `C[C@@H](Oc1cc(-n2cnc3ccc(-c4ccncc4)cc32)sc1C(N)=O)c1ccccc1Cl` please.
Response given: 0

Challenge: # lookup: %Inh of `COc1cccc(OC)c1C(=O)Nc1cccc(-c2nn3ccccc3c2-c2ccnc(Nc3cccc(F)c3)n2)c1`
Response given: 0

Challenge: I have this compound here, `Cl.Nc1n[nH]c2cc(-c3ccccn3)ccc12` , and I need its recorded %Inh.
Response given: 0

Challenge: Name the recorded %Inh for `Cn1ccc2ncnc(Oc3ccc(NC(=O)Nc4cccc(C(F)(F)F)c4)c(Cl)c3)c21` .
Response given: 86

Challenge: Reported %Inh for `O=C1NCCc2[nH]c(-c3ccncc3)cc21` : what is it?
Response given: 35

Challenge: So what does the record say about %Inh for `CC(=O)Nc1ccc(-c2cc3ncnc(SCC(=O)O)c3s2)cc1` ?
Response given: 25

Challenge: Reported %Inh, compound `Cn1ccc2ncnc(Oc3ccc(NC(=O)Nc4cnn(C(C)(C)C)c4)c(Cl)c3)c21` : ____
Response given: 27

====

System: PRKX
Conditions: concentration: 1 μM,replicates: in singlicate; n = 1
assay-metric: %Inh (%)
// units = %; emit number, no label

Consider the worked cases shown below.
OCCn1cc(-c2cnc3nnn(Cc4ccc5ncccc5c4)c3n2)cn1 | 0
CCNCC(Cc1ccccc1)NC(=O)c1cc(Br)c(-c2ccnc3[nH]ccc23)s1.Cl.Cl (centres unmarked) | 95.6
Cl.c1ccc(Oc2ccc(Nc3ccnc4cc(-c5ccc(CN6CCNCC6)o5)ccc34)cc2)nc1 | 20
CCN1CCN(CCCC(=O)Nc2n[nH]c3nc(-c4ccc(O)cc4)c(Br)cc23)CC1 | 0
CN1CCN(CCCNc2nccc(-c3c(-c4ccc(F)cc4)nn4cc(C(N)=O)ccc34)n2)CC1 | 8
COC(=O)c1cccc(NC(=O)NC2CCN(c3ccnc(Nc4cc(OC)c(OC)c(OC)c4)n3)C2)c1 (centres unmarked) | 5
CC(C)c1nc(-c2cccc(NS(=O)(=O)c3ccccc3)c2)c(-c2ccnc(Nc3ccc4c(c3)CN(C)CC4)n2)s1 | 5

Could you now consider this next molecule?
Challenge: Can you look up the measured %Inh of `Cn1ccc2ncnc(Oc3ccc(NC(=O)Nc4cnn(C(C)(C)C)c4)c(Cl)c3)c21` for me?
Response given: 3

====

System: HASPIN
Construct: gene GSG2
Conditions: concentration: 1 μM,replicates: in singlicate; n = 1
assay-metric: %Inh (%)
# value in %; strip the unit string

// below: answered molecules
Cn1ccc2ncnc(Oc3ccc(NC(=O)Nc4cncc(C(F)(F)F)c4)c(Cl)c3)c21 | 0
O=c1[nH]cc(-c2ccc(O)cc2)c2sc(-c3ccncc3)cc12 | 88
CS(=O)c1ccc(-c2coc3ccc(-c4n[nH]c(=O)o4)cc23)cc1 (stereo not drawn) | 50
CN(c1ccccc1CNc1nc(Nc2ccc3c(c2)CC(=O)N3)ncc1C(F)(F)F)S(C)(=O)=O | 0
Cc1ccc(CC(=O)N2CCc3cc(-c4cn(C)c5ncnc(N)c45)ccc32)cc1 | 5

Challenge: Param readout= %Inh; system= HASPIN; entry= `Cl.Nc1n[nH]c2cc(-c3ccccn3)ccc12` ; returns value.
Response given: 38

Challenge: Write down the reported %Inh of `C[C@@H]1CNc2c(sc3ccc4nc(-c5ccc(O)cc5)ccc4c23)C(=O)N1` , test system: HASPIN.
Response given: 48

Challenge: Requested read-out %Inh, target or system HASPIN, entry `Cn1ccc2ncnc(Oc3ccc(NC(=O)Nc4cccc(C(F)(F)F)c4)c(F)c3)c21`
Response given: 1

Challenge: Please tell me: %Inh of `O=C1NCCc2[nH]c(-c3ccncc3)cc21` , system HASPIN?
Response given: 100

====

Tested on: MEK2
Construct: gene MAP2K2
Conditions: concentration: 1 μM,replicates: in singlicate; n = 1
assay-metric: %Inh

Recorded results for 2 molecules are shown here.
C[C@@H](Oc1cc(-n2cnc3ccc(-c4ccncc4)cc32)sc1C(N)=O)c1ccccc1Cl [GSK483724] | 0%
COC(=O)c1cccc(NC(=O)NC2CCN(c3ccnc(NCc4ccc(F)cc4)n3)CC2)c1 [GSK1379860] | 0%

Continue with the next molecule.
Challenge: # input molecule: `Cn1ccc2ncnc(Oc3ccc(NC(=O)Nc4cncc(C(F)(F)F)c4)c(Cl)c3)c21` ; wanted: its %Inh
Response given: 0%

====

Test system: CDKL2
Settings: concentration: 1 μM,replicates: in singlicate; n = 1
# Lookup of reported %Inh keyed by entry
Please respond with the number in % and leave the unit unwritten.

Past entries and their recorded results:
O=C(Nc1cccc(Oc2ccc3nccn3n2)c1)Nc1cccc(C(F)(F)F)c1 | 62
COC(=O)c1cccc(NC(=O)NC2CCN(c3ccnc(Nc4cc(OC)c(OC)c(OC)c4)n3)C2)c1 (centres unmarked) [GSK1379767] | 67
COC(=O)c1cccc(NC(=O)NC2CCN(c3ccnc(NCc4ccc(F)cc4)n3)CC2)c1 [GSK1379860] | 11
CC(=O)c1c(-c2ccncc2)[nH]c(-c2ccncc2)c1C [GW493036] | 43
O=C(Nc1ccc(Oc2ccc3nc(NC(=O)C4CC4)cn3n2)c(F)c1)c1cccn(-c2ccccc2)c1=O | 74

Challenge: Which %Inh is listed for Cl.Cl.NC[C@H](CC1CCCCC1)NC(=O)c1ccc(-c2ccnc3[nH]ccc23)s1 [GSK1581428] ?
Response given: 51

Challenge: Give its %Inh value. Item: C[C@@H](Oc1cc(-n2cnc3cc(-c4ccncc4)ccc32)sc1C(N)=O)c1ccccc1Cl [GSK479719]
Response given: 33

Challenge: Looking for the measured %Inh of `CN(c1cccc(CNc2nc(Nc3ccc4c(c3)CC(=O)N4)ncc2C(F)(F)F)c1)S(C)(=O)=O` , can you help?
Response given: 55

====

System: PIK3CA
Conditions: concentration: 1 μM,replicates: in singlicate; n = 1
Examples of compounds with documented %Inh follow.
Record the value in %, omitting the unit from your answer.

Below are worked cases with known answers.
NC(=O)c1ccc(-c2cc3ncnc(SCC(=O)O)c3s2)cc1 | 0
Cn1ccc2ncnc(Oc3ccc(NC(=O)Nc4cccc(C(F)(F)F)c4)c(F)c3)c21 | 0
COC(=O)c1cccc(NC(=O)NC2CCN(c3ccnc(Nc4cc(OC)c(OC)c(OC)c4)n3)C2)c1 (stereo not drawn) | 0
C[C@@H](Oc1cc(-n2cnc3ccc(-c4ccncc4)cc32)sc1C(N)=O)c1ccccc1Cl | 53
Cl.Nc1n[nH]c2cc(-c3ccccn3)ccc12 | 0

Challenge: Give %Inh (PIK3CA) of the following compound: `O=C1NCCc2[nH]c(-c3ccncc3)cc21`
Response given: 7

Challenge: Notebook entry, PIK3CA assay: %Inh of `Cc1ccc(Nc2ccnc(Nc3ccc4c(c3)CS(=O)(=O)C4)n2)cc1O.Cl` = ?
Response given: 2

Challenge: Return %Inh measured with PIK3CA given this compound: Cc1nnc(-c2ccc3occ(-c4ccc(S(C)=O)cc4)c3n2)o1 (stereo not drawn)
Response given: 0

Challenge: So what %Inh did `Cn1cc(-c2cccc3c(N)c(C(N)=O)nnc23)cn1` get with PIK3CA?
Response given: 0

====

Test system: KIT-autoinhibited
Settings: concentration: 1 μM,replicates: in singlicate; n = 1
As shown below, each of these molecules has a reported %Inh value.
Dear colleague, please return just the value in %, with no unit written.

Completed entries (count: 3):
Cc1n[nH]c2cc(Nc3ccnc(Nc4cccc(CN5CCOCC5)c4)n3)ccc12 | 28
Cn1ccc2ncnc(Oc3ccc(NC(=O)Nc4cccc(C(F)(F)F)c4)c(Cl)c3)c21 | 37
COC(=O)c1cccc(NC(=O)NC2CCN(c3ccnc(NCc4ccc(F)cc4)n3)CC2)c1 | 0

API: the following record is the query input.
Challenge: Item: COc1ccc(Nc2nccc(N3CCC(NC(=O)c4cccc(C#N)c4)C3)n2)cc1 (stereo not shown) Test system: KIT-autoinhibited Read-out: %Inh Value: ?
Response given: 0

====

Parameter %Inh: see the listing below.
Tested on: MKNK2
Details: concentration: 1 μM,replicates: in singlicate; n = 1
Quick note: number first, unit second.

COc1cc2ncn(-c3cc(OCC4CCCCC4)c(C(N)=O)s3)c2cc1OC [GSK204559] | 10%
Cn1cc(-c2cccc3c(N)c(C(N)=O)nnc23)cn1 | 29%
CSc1nccc(-c2c(-c3ccc(F)cc3)ncn2CCCN2CCOCC2)n1.Cl [SB-217146] | 0%
COc1cc2c(Nc3ccc(NC(=O)c4ccccc4)cc3)ncnc2cc1OCCCN1CCOCC1 [GSK301329] | 18%
CN1CCN(CCCNc2nccc(-c3c(-c4ccc(F)cc4)nn4cc(C(N)=O)ccc34)n2)CC1 [GW622475] | 0%
CNC(=O)c1ccccc1Nc1nc(Nc2cccc(CS(C)(=O)=O)c2)ncc1C.O=CO [GSK1520489] | 50%
Cn1ccc2ncnc(Oc3ccc(NC(=O)Nc4ccnc(C(F)(F)F)c4)c(Cl)c3)c21 | 0%
CN1CCN(CCNc2nc3cc(Oc4ccc(NC(=O)Nc5cc(C(F)(F)F)ccc5F)cc4)ccc3[nH]2)CC1.Cl.Cl [GW768504] | 26%
Cc1ccc(C(=O)Nc2ccc(Oc3ccc4nc(NC(=O)C5CC5)cn4c3)c(F)c2)c(=O)n1-c1ccccc1 | 94.2%
O=C(NOCC1CC1)c1cc(Br)c(F)c(F)c1Nc1ccc(I)cc1Cl | 5%

Challenge: Quick one: %Inh of Cc1cccc(-c2nc(Nc3ccncc3)c3sccc3n2)n1 [GW869641] ?
Response given: 0%

Challenge: Name the recorded %Inh for `CN(c1ccccc1CNc1nc(Nc2ccc3c(c2)CC(=O)N3)ncc1C(F)(F)F)S(C)(=O)=O` .
Response given: 0%

Challenge: Which %Inh value is on record for CS(=O)c1ccc(-c2coc3ccc(-c4n[nH]c(=O)o4)cc23)cc1 (stereo not drawn) ?
Response given: 11%

Challenge: Need %Inh of CC(=O)c1c(-c2ccncc2)[nH]c(-c2ccncc2)c1C [GW493036] , thanks.
Response given: 46%

Challenge: Report %Inh for `O=C(Nc1cccc(C(F)(F)F)c1)c1cccc(Oc2ccc3nccn3n2)c1` please.
Response given: 26%

Challenge: Can you share its %Inh? I mean this molecule: O=C(NCC1CC1)c1ccc(-c2cc(C(=O)NC3CC3)ccc2F)cc1 [GW810445]
Response given: 0%

Challenge: Query (molecule): FC(F)(F)c1cc(Br)cc(Nc2nccc(-c3cnn4ncccc34)n2)c1 [GW810578] ; field requested: %Inh
Response given: 0%

Challenge: Name the recorded %Inh for COc1cc(Nc2nccc(N3CCC(NC(=O)c4cccc(C#N)c4)C3)n2)cc(OC)c1OC (stereo not drawn) [GSK1379751] .
Response given: 67%
